The values you see were collected from patent US20110098241A1.

Target: mTOR (UniProt P42346+P62942)
Construct: purchased Calbiochem CBA055
Sequence (P62942 2-108 limits assumed, other chains not shown): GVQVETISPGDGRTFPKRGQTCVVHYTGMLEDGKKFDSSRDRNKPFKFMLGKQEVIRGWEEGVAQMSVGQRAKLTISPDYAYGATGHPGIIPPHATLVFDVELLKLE
Experiment: mTOR Assay Screening Protocol (K-LISA mTOR Activity Kit, inhibitor with FKBP12)
Type: biochemical
Conditions: mTOR Standard pre-incubated with inhibitor and FKBP12 (35-37 ug/ml); p70S6K-T389 phosphorylation ELISA, absorbance at 450 nm
# t = IC50 below 100 nM (exclusive); f = IC50 at/above 100 nM

CO[C@H]1C[C@@H]2CC[C@@H](C)[C@@](O)(O2)C(=O)C(=O)N2CCCC[C@H]2C(=O)O[C@H]([C@H](C)C[C@@H]2CC[C@@H](OCCCS(=O)(=O)N3CCOCC3)[C@H](OC)C2)CC(=O)[C@H](C)/C=C(\C)[C@@H](O)[C@@H](OC)C(=O)[C@H](C)C[C@H](C)/C=C/C=C/C=C/1C [Example 17]; f
CO[C@H]1C[C@@H]2CC[C@@H](C)[C@@](O)(O2)C(=O)C(=O)N2CCCC[C@H]2C(=O)O[C@H]([C@H](C)C[C@@H]2CC[C@@H](OC(=O)NS(=O)(=O)N3CCOCC3)[C@H](OC)C2)CC(=O)[C@H](C)/C=C(\C)[C@@H](O)[C@@H](OC)C(=O)[C@H](C)C[C@H](C)/C=C/C=C/C=C/1C [Example 1]; t
CO[C@H]1C[C@@H]2CC[C@@H](C)[C@@](O)(O2)C(=O)C(=O)N2CCCC[C@H]2C(=O)O[C@H]([C@H](C)C[C@@H]2CC[C@@H](OC(=O)NS(=O)(=O)N(CCO)CCO)[C@H](OC)C2)CC(=O)[C@H](C)/C=C(\C)[C@@H](O)[C@@H](OC)C(=O)[C@H](C)C[C@H](C)/C=C/C=C/C=C/1C [Example 3]; f
CO[C@H]1C[C@@H]2CC[C@@H](C)[C@@](O)(O2)C(=O)C(=O)N2CCCC[C@H]2C(=O)O[C@H]([C@H](C)C[C@@H]2CC[C@@H](OC(=O)NS(=O)(=O)Nc3ccc(O)cc3)[C@H](OC)C2)CC(=O)[C@H](C)/C=C(\C)[C@@H](O)[C@@H](OC)C(=O)[C@H](C)C[C@H](C)/C=C/C=C/C=C/1C [Example 5]; t
CO[C@H]1C[C@@H]2CC[C@@H](C)[C@@](O)(O2)C(=O)C(=O)N2CCCC[C@H]2C(=O)O[C@H]([C@H](C)C[C@@H]2CC[C@@H](OC(=O)N3CCC(O)CC3)[C@H](OC)C2)CC(=O)[C@H](C)/C=C(\C)[C@@H](O)[C@@H](OC)C(=O)[C@H](C)C[C@H](C)/C=C/C=C/C=C/1C [Example 15]; f
CO[C@H]1C[C@@H]2CC[C@@H](C)[C@@](O)(O2)C(=O)C(=O)N2CCCC[C@H]2C(=O)O[C@H]([C@H](C)C[C@@H]2CC[C@@H](OC(=O)NS(=O)(=O)N3CC[C@@H](O)C3)[C@H](OC)C2)CC(=O)[C@H](C)/C=C(\C)[C@@H](O)[C@@H](OC)C(=O)[C@H](C)C[C@H](C)/C=C/C=C/C=C/1C [Example 4]; t

---

# IC50 annotations
Target: mTOR (UniProt P42346+P62942)
Construct: purchased Calbiochem CBA055
Experiment: mTOR Assay Screening Protocol (K-LISA mTOR Activity Kit, inhibitor with FKBP12)
Format: biochemical
Conditions: mTOR Standard pre-incubated with inhibitor and FKBP12 (35-37 ug/ml); p70S6K-T389 phosphorylation ELISA, absorbance at 450 nm
ENDPOINT_NAME: IC50 (nM)

CO[C@H]1C[C@@H]2CC[C@@H](C)[C@@](O)(O2)C(=O)C(=O)N2CCCC[C@H]2C(=O)O[C@H]([C@H](C)C[C@@H]2CC[C@@H](OC(=O)NS(=O)(=O)N(C)C)[C@H](OC)C2)CC(=O)[C@H](C)/C=C(\C)[C@@H](O)[C@@H](OC)C(=O)[C@H](C)C[C@H](C)/C=C/C=C/C=C/1C [Example 2]; 30
CO[C@H]1C[C@@H]2CC[C@@H](C)[C@@](O)(O2)C(=O)C(=O)N2CCCC[C@H]2C(=O)O[C@H]([C@H](C)C[C@@H]2CC[C@@H](OC(=O)CN3CCC(O)CC3)[C@H](OC)C2)CC(=O)[C@H](C)/C=C(\C)[C@@H](O)[C@@H](OC)C(=O)[C@H](C)C[C@H](C)/C=C/C=C/C=C/1C [Example 8]; 70
CO[C@H]1C[C@@H]2CC[C@@H](C)[C@@](O)(O2)C(=O)C(=O)N2CCCC[C@H]2C(=O)O[C@H]([C@H](C)C[C@@H]2CC[C@@H](OC(=O)NCCN3CCOCC3)[C@H](OC)C2)CC(=O)[C@H](C)/C=C(\C)[C@@H](O)[C@@H](OC)C(=O)[C@H](C)C[C@H](C)/C=C/C=C/C=C/1C [Example 16]; 300
CO[C@H]1C[C@@H]2CC[C@@H](C)[C@@](O)(O2)C(=O)C(=O)N2CCCC[C@H]2C(=O)O[C@H]([C@H](C)C[C@@H]2CC[C@@H](OCCOC[Si](C)(C)C)[C@H](OC)C2)CC(=O)[C@H](C)/C=C(\C)[C@@H](O)[C@@H](OC)C(=O)[C@H](C)C[C@H](C)/C=C/C=C/C=C/1C [Example 12]; 30
CO[C@H]1C[C@@H]2CC[C@@H](C)[C@@](O)(O2)C(=O)C(=O)N2CCCC[C@H]2C(=O)O[C@H]([C@H](C)C[C@@H]2CC[C@@H](OC(=O)CN(CCO)CCO)[C@H](OC)C2)CC(=O)[C@H](C)/C=C(\C)[C@@H](O)[C@@H](OC)C(=O)[C@H](C)C[C@H](C)/C=C/C=C/C=C/1C [Example 14]; 240
